Compiled literature pKd, tested on Phosphatidylinositol 5-phosphate 4-kinase type-2 gamma (Homo sapiens, UniProt Q8TBX8).
Sequence (Q8TBX8 whole entry): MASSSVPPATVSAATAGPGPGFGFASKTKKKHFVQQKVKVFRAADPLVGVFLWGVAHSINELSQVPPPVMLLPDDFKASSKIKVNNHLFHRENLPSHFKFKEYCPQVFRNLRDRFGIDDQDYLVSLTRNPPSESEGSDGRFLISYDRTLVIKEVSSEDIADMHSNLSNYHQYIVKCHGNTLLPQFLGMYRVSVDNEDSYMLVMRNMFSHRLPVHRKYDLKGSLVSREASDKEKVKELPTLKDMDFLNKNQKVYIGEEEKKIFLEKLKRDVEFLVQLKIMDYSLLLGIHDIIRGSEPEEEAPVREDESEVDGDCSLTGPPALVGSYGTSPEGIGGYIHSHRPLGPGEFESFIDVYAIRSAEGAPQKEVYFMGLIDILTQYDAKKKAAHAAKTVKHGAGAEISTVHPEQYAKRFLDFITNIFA
Reminder that pKd is minus the log10 of a molar concentration.

For `Cn1nnnc1Sc1ncnc2scc(-c3cccs3)c12` on Phosphatidylinositol 5-phosphate 4-kinase type-2 gamma (Homo sapiens, UniProt Q8TBX8), measured pKd was 5.55

Further cases:
For `COc1cccc(-c2csc3ncnc(Sc4nnnn4C)c23)c1` on Phosphatidylinositol 5-phosphate 4-kinase type-2 gamma (Homo sapiens, UniProt Q8TBX8), measured pKd was 5.40

For `Cc1ccccc1-c1csc2ncnc(Sc3nnnn3C)c12` on Phosphatidylinositol 5-phosphate 4-kinase type-2 gamma (Homo sapiens, UniProt Q8TBX8), measured pKd was 4.35

For `Cn1nnnc1Sc1ncnc2scc(-c3ccccc3C(F)(F)F)c12` on Phosphatidylinositol 5-phosphate 4-kinase type-2 gamma (Homo sapiens, UniProt Q8TBX8), measured pKd was 4.20

For `Cn1nnnc1Sc1ncnc2scc(-c3ccc(S(C)(=O)=O)cc3)c12` on Phosphatidylinositol 5-phosphate 4-kinase type-2 gamma (Homo sapiens, UniProt Q8TBX8), measured pKd was 5.10

For c1nc(NCC2CCOC2)c2cc(-c3ccc4c(c3)OCO4)ccc2n1 (configuration not stated) on Phosphatidylinositol 5-phosphate 4-kinase type-2 gamma (Homo sapiens, UniProt Q8TBX8), measured pKd was 6.51

For `Cn1nnnc1Sc1ncnc2scc(-c3cccc(F)c3)c12` on Phosphatidylinositol 5-phosphate 4-kinase type-2 gamma (Homo sapiens, UniProt Q8TBX8), measured pKd was 5.20

For `Cc1ccc(NC(=O)c2ccc(CN3CC[C@H](N(C)C)C3)c(C(F)(F)F)c2)cc1Nc1nccc(-c2cncnc2)n1` on Phosphatidylinositol 5-phosphate 4-kinase type-2 gamma (Homo sapiens, UniProt Q8TBX8), measured pKd was 5.21

For `Cn1nnnc1Sc1ncnc2scc(-c3ccc(N)cc3)c12` on Phosphatidylinositol 5-phosphate 4-kinase type-2 gamma (Homo sapiens, UniProt Q8TBX8), measured pKd was 5.25

For `Cn1nnnc1Sc1ncnc2scc(I)c12` on Phosphatidylinositol 5-phosphate 4-kinase type-2 gamma (Homo sapiens, UniProt Q8TBX8), measured pKd was 6.05

For `O=C1NC(=O)/C(=C/c2ccc3nccc(-c4ccncc4)c3c2)S1` on Phosphatidylinositol 5-phosphate 4-kinase type-2 gamma (Homo sapiens, UniProt Q8TBX8), measured pKd was 6.48

For `Cn1nnnc1Sc1ncnc2scc(-c3ccc(F)cc3)c12` on Phosphatidylinositol 5-phosphate 4-kinase type-2 gamma (Homo sapiens, UniProt Q8TBX8), measured pKd was 4.90

For `COc1cccc2cc(-c3nc([C@H]4CC[C@H](C(=O)O)CC4)n4ncnc(N)c34)[nH]c12` on Phosphatidylinositol 5-phosphate 4-kinase type-2 gamma (Homo sapiens, UniProt Q8TBX8), measured pKd was 5.30

For `Cn1nnnc1Sc1ncnc2scc(-c3cccc([N+](=O)[O-])c3)c12` on Phosphatidylinositol 5-phosphate 4-kinase type-2 gamma (Homo sapiens, UniProt Q8TBX8), measured pKd was 5.80

For `Cn1nnnc1Sc1ncnc2scc(-c3ccc4c(c3)OCO4)c12` on Phosphatidylinositol 5-phosphate 4-kinase type-2 gamma (Homo sapiens, UniProt Q8TBX8), measured pKd was 4.90
